This listing pairs binders with measured fold improvement of kd (reference LHG-10).
biological target: T1, recombinant soluble human GARP-TGFβ1 complex (human, UniProt Q14392 20-628; P01137 30-390); assay: SPR (Biacore), hGARP-TGFβ1 immobilised
T1 construct: co-expressed in HEK293E, purified by the Strep-Tag; TGFβ consists of LAP and mature TGFβ; also called shGARP-TGFβ; rhGARP-TGFβ
T1 sequence (Q14392 other isoform, or with tags, fused parts or gaps limits assumed, chain 1 of 2): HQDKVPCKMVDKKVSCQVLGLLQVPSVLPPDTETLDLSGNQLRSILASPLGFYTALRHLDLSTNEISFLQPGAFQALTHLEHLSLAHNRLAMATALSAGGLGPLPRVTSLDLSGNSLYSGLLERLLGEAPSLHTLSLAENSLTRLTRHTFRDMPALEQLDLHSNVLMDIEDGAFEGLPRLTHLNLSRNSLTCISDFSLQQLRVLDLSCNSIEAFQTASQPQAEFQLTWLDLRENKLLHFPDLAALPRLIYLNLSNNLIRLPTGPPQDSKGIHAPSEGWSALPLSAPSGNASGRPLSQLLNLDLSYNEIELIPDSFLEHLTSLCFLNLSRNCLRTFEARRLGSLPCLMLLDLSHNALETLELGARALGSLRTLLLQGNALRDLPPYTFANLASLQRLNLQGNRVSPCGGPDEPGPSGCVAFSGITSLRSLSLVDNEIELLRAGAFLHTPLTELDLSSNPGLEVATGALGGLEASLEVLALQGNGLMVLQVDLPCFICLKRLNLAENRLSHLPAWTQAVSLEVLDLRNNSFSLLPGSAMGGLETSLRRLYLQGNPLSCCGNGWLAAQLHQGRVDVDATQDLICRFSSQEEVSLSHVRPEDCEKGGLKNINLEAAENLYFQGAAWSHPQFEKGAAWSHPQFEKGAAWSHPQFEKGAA
T1 sequence (P01137 30-390 limits assumed, chain 2 of 2): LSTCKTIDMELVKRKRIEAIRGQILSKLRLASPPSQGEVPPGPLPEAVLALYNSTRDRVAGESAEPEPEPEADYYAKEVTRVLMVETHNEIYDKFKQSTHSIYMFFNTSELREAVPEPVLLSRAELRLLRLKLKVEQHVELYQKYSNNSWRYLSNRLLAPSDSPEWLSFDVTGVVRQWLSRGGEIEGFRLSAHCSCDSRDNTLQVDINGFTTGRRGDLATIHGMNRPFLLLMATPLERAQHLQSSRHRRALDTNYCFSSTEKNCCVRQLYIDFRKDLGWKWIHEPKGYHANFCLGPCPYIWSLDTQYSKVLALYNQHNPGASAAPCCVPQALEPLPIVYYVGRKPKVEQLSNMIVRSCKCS
State the answer as a number, implicitly in fold.

Would you please look over these solved cases?
LHG-10.6 (antibody, human IgG1, V domains shown, VK-shuffled variant of LHG-10, human IgG1) VH: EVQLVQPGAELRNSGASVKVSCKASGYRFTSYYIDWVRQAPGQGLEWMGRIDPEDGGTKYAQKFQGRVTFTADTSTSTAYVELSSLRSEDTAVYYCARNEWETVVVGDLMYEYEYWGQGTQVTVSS VL: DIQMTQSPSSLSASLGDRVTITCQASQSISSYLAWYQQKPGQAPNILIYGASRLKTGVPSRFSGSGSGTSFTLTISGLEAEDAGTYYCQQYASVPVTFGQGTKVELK
7.1
LHG-10.3 (antibody, human IgG1, V domains shown, VK-shuffled variant of LHG-10, human IgG1) VH: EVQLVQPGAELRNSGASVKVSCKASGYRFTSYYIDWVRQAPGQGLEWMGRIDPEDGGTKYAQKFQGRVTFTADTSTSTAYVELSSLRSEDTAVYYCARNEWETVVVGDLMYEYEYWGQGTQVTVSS VL: DIQMTQSPSSLSASLGDRVTITCQASQSIVSYLAWYQQKPGQAPKLLIYGASRLQTGVPSRFSGSGSGTSFTLTISGLEAEDAGTYYCQQYASAPVTFGQGTGVELK
4.9

Then this binder:
Report fold improvement of kd (reference LHG-10) for LHG-10.5 (antibody, human IgG1, V domains shown, VK-shuffled variant of LHG-10, human IgG1) VH: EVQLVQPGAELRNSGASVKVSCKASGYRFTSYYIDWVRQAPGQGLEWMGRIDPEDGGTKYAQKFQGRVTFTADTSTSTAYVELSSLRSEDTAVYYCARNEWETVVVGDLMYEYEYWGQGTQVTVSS VL: DIQMTQSPSSLSPSLGDRVTITCQASQTISSFLAWYHQKPGQPPKLLIYRASIPQTGVPSRFSGSGSGTSFTLTIGGLEAEDAGTYYCQQYVSAPPTFGQGTKVELK please.
2.3
